Assign IC50 to each entry below.
- System: U373 glioblastoma cells
- Experiment description: MTT colorimetric assay, overall cell growth, U373
- Assay type: cell-based, human
- Experimental context: 72 hours of incubation, read-out: In Vitro IC50 Growth Inhibitory Values, U373
Numeric answer only, unit µM assumed.

Query: Indicate its recorded IC50; the molecule in question is COc1cc(C(=O)O[C@H]2CCC[C@@H]2OC(=O)c2ccc(O)c(OC)c2)ccc1O (stereo in doubt)
Result: 30

Query: Indicate its recorded IC50; the molecule in question is COc1cc(C(=O)O[C@H]2CCCCC[C@@H]2OC(=O)c2ccc(O)c(OC)c2)ccc1O (relative stereo)
Result: 54

----------
Heads up, these molecules all have pIC50 values measured for UniProt:O14965.
Sequence (O14965 whole entry): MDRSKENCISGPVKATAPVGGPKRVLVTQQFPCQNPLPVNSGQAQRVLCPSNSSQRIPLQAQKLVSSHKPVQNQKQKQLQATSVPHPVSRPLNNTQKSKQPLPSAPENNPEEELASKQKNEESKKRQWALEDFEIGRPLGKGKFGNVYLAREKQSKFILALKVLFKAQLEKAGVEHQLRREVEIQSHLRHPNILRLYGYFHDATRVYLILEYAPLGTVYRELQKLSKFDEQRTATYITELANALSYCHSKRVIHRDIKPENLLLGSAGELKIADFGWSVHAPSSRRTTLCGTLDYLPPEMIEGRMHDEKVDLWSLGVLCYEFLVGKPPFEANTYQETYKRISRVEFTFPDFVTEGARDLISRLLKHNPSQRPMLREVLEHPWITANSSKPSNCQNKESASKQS
Scale: pIC50 equals -log10([C]), with [C] in mol/L.

Query: Consider the molecule COc1cc(C(=O)OCc2cc(COC(=O)c3ccc(O)c(OC)c3)cc(COC(=O)c3ccc(O)c(OC)c3)c2)ccc1O [DLT95] tested on UniProt:O14965; state its pIC50.
Result: 5.04

Query: Consider the molecule O=C(OCc1cc(COC(=O)c2ccc(O)c(Cl)c2)cc(COC(=O)c2ccc(O)c(Cl)c2)c1)c1ccc(O)c(Cl)c1 [DLT95-Cl] tested on UniProt:O14965; state its pIC50.
Result: 5.77

Query: Consider the molecule O=C(OCc1cc(COC(=O)c2ccc(O)c(F)c2)cc(COC(=O)c2ccc(O)c(F)c2)c1)c1ccc(O)c(F)c1 [DLT95-F] tested on UniProt:O14965; state its pIC50.
Result: 5.49

----------
- System: Eleven human cancer cell lines
- Experiment description: MTT colorimetric assay, across the eleven human cancer cell lines
- Format: cell-based
- Experimental context: mean ± SEM over the 11 human cancer cell lines, MTT, 72 hours; read-out: In Vitro IC50 Growth Inhibitory Values, m ± SEM
Assign IC50 to each entry below.
Numeric answer only, unit µM assumed.

Query: Indicate its recorded IC50; the compound in question is COc1cc(C(=O)OC2CCCC[C@@H]2OC(=O)c2ccc(O)c(OC)c2)ccc1O (some centres unmarked) [DLT7]
Result: 47

Query: Indicate its recorded IC50; the compound in question is COc1cc(C(=O)OCCOC(=O)c2ccc(O)c(OC)c2)ccc1O [DLT1]
Result: 53

Query: Indicate its recorded IC50; the compound in question is O=C(O[C@@H]1CCCC[C@H]1OC(=O)c1cc(O)c(O)c(O)c1)c1cc(O)c(O)c(O)c1 (stereo in doubt) [DLT34]
Result: 41

Query: Indicate its recorded IC50; the compound in question is COc1cc(C(=O)OCCCCCCCOC(=O)c2ccc(O)c(OC)c2)ccc1O [DLT12]
Result: 46

Query: Indicate its recorded IC50; the compound in question is COc1cc(C(=O)O[C@H]2CCC[C@@H]2OC(=O)c2ccc(O)c(OC)c2)ccc1O (stereo in doubt) [DLT15]
Result: 28

Query: Indicate its recorded IC50; the compound in question is O=C(OCCOC(=O)c1ccc(O)c(Cl)c1)c1ccc(O)c(Cl)c1 [DLT23]
Result: 57

Query: Indicate its recorded IC50; the compound in question is COc1cc(C(=O)NCCCNC(=O)c2ccc(O)c(OC)c2)ccc1O [DLT36]
Result: 35

Query: Indicate its recorded IC50; the compound in question is COc1cc(C(=O)O[C@H]2CCC[C@H]2OC(=O)c2ccc(O)c(OC)c2)ccc1O [DLT14]
Result: 29
